Field: melting point. Provide a value for each of the molecules that follow.

A selection of reference data follows.
Cc1cc(OCCc2ccccc2)ccc1[N+](=O)[O-]	70 to 72 °C
Cn1c(=O)[nH]c2ncccc2c1=O	272 to 274 °C
CCCc1c(OCCCCCC(=O)c2ccc(O)c(O)c2)ccc(C(=O)O)c1O	188 to 191 °C
Cc1ccc(-c2nn(C(C)(C)C)c(N)c2C#N)cc1	174 to 176 °C
Cc1ccc(-c2ncc(O)nc2-c2ccc(C)cc2)cc1	250 to 254 °C

Can you give me melting point for all of these, one by one?
1. CNC(=O)C(=O)CCCCCCS(=O)(=O)c1ccc(-c2ccccc2)cc1
2. COc1ccccc1C1(O)C(=O)Nc2cc(Cl)c(Cl)cc21 (stereo unspecified)
3. O=C(c1ccc(F)nc1)N1CCC[C@H](c2nc(-c3ccc[nH]3)no2)C1
4. CC(=O)NC[C@H]1CN(c2ccc3c(c2)CC(C)N3C(=O)CO)C(=O)O1 (stereo partly specified)
5. CS(=O)(=O)c1ccc2c(c1)[nH]c(=S)n2NC(=O)c1ccc(Cl)c(S(N)(=O)=O)c1

Output:
134 to 135 °C
245 to 246 °C
131 to 132 °C
130 to 133 °C
298 to 300 °C

I have 4 molecules here; please give me melting point for each one.
1. O=CC1=C(Cl)Nc2cc(Cl)c(F)cc2C1
2. CN1C2CCC1CN(c1ccc(C#Cc3ccc(NC(=O)c4ccccc4)cc3)nn1)C2
3. CCOC(=O)c1[nH]cc(-c2ccc(F)cc2)c1-c1ccccc1
4. O=S(=O)(c1cccc2c(Cl)cccc12)N1CC2CCC(CC2)C1

Output:
1: 260 °C; 2: 88 to 96 °C; 3: 145 to 146 °C; 4: 105 to 106 °C

---

readoutType: melting point

Previously resolved entries follow.
C=CCOC(=O)c1ccc(NCCCCCCCCCCCCCCCC)cc1	81 to 83 °C
CC(=O)OC1CSC(Oc2ccc(-c3c(C)n[nH]c3C)nc2)C(OC(C)=O)C1OC(C)=O (stereo not given)	154 °C
CC(=O)c1ncccc1C(O)=NNC(=O)Nc1cc(F)cc(F)c1	79 to 82 °C
Nc1ccc(C(=O)Nc2ccccc2-c2nnn[nH]2)cc1	202 to 204 °C
Cn1c(C2CC2)nc2c(O)c(C(=O)[C@H](O)[C@@H](O)c3ccccc3)ccc21	156 °C
CN(C)C(=O)c1nc(-c2cccnc2)nc2c1c1ccc(Cl)cc1n2C	283 to 284 °C
COc1ccc(Cn2c(C)c(Br)c3cnnc(OCc4ccccc4)c32)cc1	149 to 152 °C
N#Cc1nn(-c2c(Cl)cc(C(F)(F)F)cc2Cl)c(C=O)c1SC(F)(F)F	90 °C

Go through the list and state melting point for each entry.
1. O=C(O)c1cccc(-c2ccc3c(c2)N(c2cc(Cl)ccc2Cl)CC3)c1
2. CC(C)N1CC(=O)N(c2ccc(O)cc2F)C1=O

Output:
1. 219 to 220 °C
2. 190 to 192 °C

---

So I've got a bunch of compounds here, and I need their melting point values.

O=C(O)c1ccccc1N1CCN(CC(O)COc2cccc3[nH]ccc23)CC1 (stereo unspecified)	163 to 165 °C
CSc1nn(C(C)(C)C)c(=O)c(Cl)c1C1CCC(C(C)(C)C)CC1 (stereo unspecified)	96 °C
Cc1ccccc1NC(=O)c1ccc(C(=O)N2Cc3ccccc3Cc3ccccc32)cc1	214 to 216 °C
Nc1nc(NC2CCCC2)c2ncn(C3C=CC(CO)C3)c2n1 (stereo unspecified)	143 to 146 °C

Please give melting point for each item listed below.
1. CC(Oc1ncn(-c2cccc(Br)c2)n1)C(N)=O (stereo unspecified)
2. CC(C)(C)NS(=O)(=O)c1cncc(Br)c1

Output:
141 to 144 °C
110 °C

---

readoutType: melting point

// worked examples, melting point included
Cc1cc2c(-c3ccccc3)noc2c2c1OC(C(=O)O)C2 (stereo unspecified)	210 to 213 °C
CCCC(=O)Nc1n[nH]c2c(F)c(F)ccc12	191 °C
CC(C)N(C)CCOc1ccc(-n2ccc(OCc3ccc(Cl)cn3)cc2=O)cc1	137 to 138 °C

Consider the following items and state reported melting point for each.
1. COc1c(O)ccc2cc[nH]c12
2. C=C(CS(C)(=O)=O)C(=O)O
3. CC(C)N1C(=O)NC(c2cccnc2)c2cc3c(cc21)OCO3 (stereo unspecified)

Output:
1. 83 to 84 °C
2. 147 to 149 °C
3. 172 to 174 °C

Could I get melting point for every one of these entries?
1. CC(C)(C)C(=O)CCSC(=S)Nc1ccc(Cl)cn1
2. Cc1noc(NS(=O)(=O)c2ncccc2C(=O)Nc2ccccc2)c1C
3. COc1cc2c(c(OC)c1OC)C(=O)C(CCCCCCC1Cc3cc(OC)c(OC)c(OC)c3C1=O)C2 (stereo unspecified)
4. Cc1nc2ccc(NC(=O)COCc3ccccc3)cc2c(=O)n1C1CCC(=O)NC1=O (stereo unspecified)
5. N#Cc1cncc(C=O)c1

Output:
["111 °C", "199 to 200 °C", "129 to 130 °C", "248 to 250 °C", "96 to 98 °C"]

---

readoutType: melting point

Cc1ccc(C2COc3c(C)c(C)cc(C)c32)nc1 (stereo not given)	69 to 70 °C
COc1cc(C#N)ccc1C(Br)C(Br)C(=O)c1cccc(C#N)c1 (stereo not given)	72 to 75 °C

Could I get melting point for every one of these entries?
1. NS(=O)(=O)c1ccc(NC(=O)NC23CC4CC(CC(C4)C2)C3)cc1
2. O=C(O)c1cnc2ncnn2c1S
3. O=S(=O)(CCCCl)Nc1cccc(COc2cccc3cccnc23)c1
4. COC(=O)[C@@H](CC(C)C)NC(=O)c1ccc2c(c1)OCO2

Output:
270 to 275 °C
247 to 249 °C
142 to 143 °C
89 to 90 °C

Report melting point for every entry below.
1. O=C(C(=O)N1CCC(c2nnnn2-c2ccccc2)CC1)c1c[nH]c2c(-n3ccnn3)ncc(F)c12
2. O=C(O)CCNc1cccc(Br)n1
3. CN(N=Cc1cnc[nH]1)C(=O)c1[nH]c2ccccc2c1-c1ccccc1
4. O=[N+]([O-])c1ccc2c(c1)S(=O)(=O)c1cc(F)ccc1-2

Output:
1. 257 to 258 °C
2. 108 to 109 °C
3. 248 to 250 °C
4. 275 to 279 °C

---

readoutType: melting point

Example entries and their recorded answers appear below.
O=S(=O)(/C=C/c1ccc(F)cc1F)CS(=O)(=O)/C=C/c1ccc(F)cc1F	193 to 195 °C
CCCCCCCCCSCCCN=C=O	86 to 88 °C
Cc1ccc(-c2ccc3c(c2)C=C(C(=O)Nc2ccc(C(=O)C4CCCCN4C(=O)OC(C)(C)C)cc2)CCO3)cc1 (stereo not given)	223 to 224 °C
CSc1cc(C(=O)c2cc(C(C)(C)C)c(O)c(C(C)(C)C)c2)cn1C	173 to 175 °C
Cn1c(N=C=O)c(-c2ccccc2)c2cc([N+](=O)[O-])ccc21	> 250 °C
CNc1cccc(C(=O)O)c1C	165 to 167 °C

Provide melting point for all items below, preserving their order.
1. CC(NC(=O)Nc1ccc(CN2C(=O)C3CCCC3N(C(=O)CN3C(=O)c4ccccc4C3=O)c3ccccc32)cc1)c1ccccc1 (stereo not given)
2. CC(C#N)NC(=O)NC(C)(C)C (stereo not given)
3. O=C(O)Cc1ccc2c(c1)C(=O)C(=Cc1ccccc1)C2
4. CCOc1cc(C)c(Cl)cc1S(N)(=O)=O

Output:
["156 to 160 °C", "161 to 163 °C", "202 to 204 °C", "153 to 155 °C"]

---

Consider the following molecules; for each one, report its melting point.

Worked examples follow.
CC(=O)c1cn(-c2c(Cl)cc(C(F)(F)F)cc2Cl)nc1C#N	166 to 168 °C
O=C1C(O)=C(N2CCN(c3cccc(C(F)(F)F)c3)CC2)C(=O)c2ccccc21	167 to 169 °C
CC(=O)c1ccc(S(=O)(=O)NCc2ccccc2-c2ccccc2C(=O)NCCc2ccccc2)cc1	145 °C

Go through the items and report each one's melting point.
1. CC1(C)C(=O)C(C)(C)c2cc([N+](=O)[O-])c([N+](=O)[O-])cc21
2. N#Cc1c(N2CCCCC2)cc(-c2cccc3ccccc23)c2c1Cc1ccccc1-2
3. CCN(CC)C(=O)Nc1ccc(S(=O)(=O)N2C(=O)C(C)(c3cc(C(=O)NCc4cccnc4)ccc3Cl)c3cc(Cl)ccc32)c(OC)c1 (stereo not drawn)
4. O=C(O)CCOCCc1cccc(-c2nc(=O)c3ccccc3s2)n1
5. Cc1ccc2c3c(ccc2n1)OC[C@H](CNC(=O)C1CCc2c([nH]c4ccc(F)cc24)C1)O3 (stereo partly drawn)

Output:
1. 212 to 218 °C
2. 148 to 149 °C
3. 148 °C
4. 237 °C
5. 92 to 96 °C
